B1: Pistol ribozyme (parent)
chain: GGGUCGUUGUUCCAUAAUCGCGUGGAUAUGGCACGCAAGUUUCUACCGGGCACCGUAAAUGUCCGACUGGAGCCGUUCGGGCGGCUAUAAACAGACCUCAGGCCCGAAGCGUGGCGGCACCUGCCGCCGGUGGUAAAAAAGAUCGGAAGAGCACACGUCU

- Variants of: B1
- assayMethodText: aptazyme ON/OFF ratio, guanine; higher = stronger switching; co-transcriptional cleavage with and without guanine
endpointLabel: aptazyme ON/OFF ratio

                            variant  testresult
 0                 U7G U8C G9U U10A        4.06
 1       U7C U8A G9C U10G C12G C13U        1.15
 2       U7C U8G G9C U10A U11G C12A        1.05
 3                    U8G U10G U11G        1.45
 4  U7A U8G G9U U10G U11G C12G C13U       0.953
 5       U7G U8C G9C U10G U11A C12A        1.28
 6           U7C G9C U11A C12G C13G        1.07
 7               U8C U10C U11C C13A        1.08
 8  U7C U8C G9A U10C U11A C12U C13U         1.3
 9               G9A U10G C12U C13G        1.35
10           U7G U8G U10C U11C C12U        1.35
11               G9C U10C U11A C13A        1.05
12           U7A G9U U10G U11G C13A        1.22
13       U7C U8C G9U U10G U11G C13G        1.13
14           U8G G9U U11G C12G C13G        1.36
15      U8C G9A U10A U11C C12G C13U         1.3
16       U7A U8C G9C U11C C12G C13U        1.09
17            U7A U8C G9U U10A C12G        1.23
18            U7G U8A G9A U11A C13G        1.02
19      U8G G9U U10A U11G C12U C13U        1.13
20          U8C U10G U11A C12U C13A        1.35
21      U8C G9C U10G U11G C12G C13G         1.1

Where do these numbers come from? They come from the RNAGym collection of RNA variant scans (doi:10.1021/acssynbio.7b00057).
